Please respond with reported growth for every item in the list.
# Tested on: DU-145 prostate
# measurement notes: NCI-60 one-dose screen, 48 h (100 = growth as untreated, 0 = no growth, -100 = all killed)
# experimental context: 10 µM unless noted
The panel holds about 83,000 compounds, 20% with a hit somewhere; the sample as a whole holds those more often.
Numeric only. Scale: %

-- ask I'd like to know its growth. The molecule in question is N=C(N)c1ccc(-c2ccc(-c3ccc(Cl)cc3)o2)o1
-- reply -80.4

-- ask I'd like to know its growth. The molecule in question is N#CC(C#N)N=Nc1ccc(Cl)cc1Cl
-- reply 80.8

-- ask I'd like to know its growth. The molecule in question is NNC(=S)N/N=C/c1ccccn1
-- reply 34.5

-- ask I'd like to know its growth. The molecule in question is O=C(O)c1cccc(N/C=C/C(=O)c2cc3cc(Br)ccc3oc2=O)c1
-- reply 108

-- ask I'd like to know its growth. The molecule in question is CN1CCN(CCCOc2ccc3ncnc(Nc4ccc(Oc5cccc(F)c5)c(Cl)c4)c3c2)CC1
-- reply 15.2

-- ask I'd like to know its growth. The molecule in question is COc1ccc2c(O)c(/C=C3\N=Nc4ccccc43)oc2c1C[C@H]1CCNC[C@H]1F
-- reply 51.1

-- ask I'd like to know its growth. The molecule in question is CCN(CC)CCNC(=O)c1ccc(-c2nc3ccc4[nH]ncc4c3c3c2CCCC3)cc1
-- reply 53.5

-- ask I'd like to know its growth. The molecule in question is O=C(Nc1cccc(NC(=O)C2CCCCC2)c1)c1ccccn1
-- reply 103

-- ask I'd like to know its growth. The molecule in question is COc1cc(C(=O)/C=C/c2c(-c3cccs3)nc3ccccn23)cc(OC)c1OC
-- reply 3.29

-- ask I'd like to know its growth. The molecule in question is COc1cc(-c2cc(-c3ccc(Nc4ncnc5cc(Cl)ccc45)cc3)nc(N3CCN(C)CC3)n2)cc(OC)c1OC
-- reply 98.9
